# measurement.protocol: recombinant UMI read abundance after kanamycin selection (control-corrected) (log10(CPM+1)); higher = more efficient recombination; extreme values may be limits of the assay; sequences stand for … in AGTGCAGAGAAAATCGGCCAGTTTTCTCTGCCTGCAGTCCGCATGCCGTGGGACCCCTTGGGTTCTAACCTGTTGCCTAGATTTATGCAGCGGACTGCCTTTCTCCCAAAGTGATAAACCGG…AGGTTGGTTTCACT; site = the 11-nt donor;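 note: IS621 bridge recombinase in Escherichia coli cells against a fixed T5 target plasmid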
measurement.label: recombinant UMI read abundance (log10)

These solved cases illustrate the format of a correct answer.
• ACGTGTACATGGACCGGTTTTCCCGGTAATCCGTATTTGTT (site ACGTGTACTAA) = 1.47
• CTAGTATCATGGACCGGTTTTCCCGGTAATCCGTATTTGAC (site CTAGTGCCTGT) = 0
• AAAACACCATGGACCGGTTTTCCCGGTAATCCGTATTTGCG (site AAAACACCTCG) = 0.012
• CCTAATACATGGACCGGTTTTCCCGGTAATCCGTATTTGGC (site CCTAATACTGC) = 0
• GCCCGAACATGGACCGGTTTTCCCGGTAATCCGTATTTGTC (site GCCCGAACTGA) = 1.98
• AGTTTGGCATGGACCGGTTTTCCCGGTAATCCGTATTTGCT (site CGTTTGGCTAG) = 0

Query: If you can, please state the reported recombinant UMI read abundance (log10) value of ACACATCCATGGACCGGTTTTCCCGGTAATCCGTATTTGCC (site ACACATCCTGC) .
Response: 0

Query: Would you kindly repeat that for AGAAAGGCATGGACCGGTTTTCCCGGTAATCCGTATTTGTT (site AGAAAGGCTAC) ?
Response: 0

Query: Would you kindly repeat that for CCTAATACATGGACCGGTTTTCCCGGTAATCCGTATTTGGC (site CCAAATACTGC) ?
Response: 0
